- experimental-target: T1, TRCW5 antigen (CD3δε-Fc-Avi) (biotinylated (site not stated))
- T1 construct: also called recombinant CD3
- T1 sequence (chain, as listed by the source mutant limits assumed): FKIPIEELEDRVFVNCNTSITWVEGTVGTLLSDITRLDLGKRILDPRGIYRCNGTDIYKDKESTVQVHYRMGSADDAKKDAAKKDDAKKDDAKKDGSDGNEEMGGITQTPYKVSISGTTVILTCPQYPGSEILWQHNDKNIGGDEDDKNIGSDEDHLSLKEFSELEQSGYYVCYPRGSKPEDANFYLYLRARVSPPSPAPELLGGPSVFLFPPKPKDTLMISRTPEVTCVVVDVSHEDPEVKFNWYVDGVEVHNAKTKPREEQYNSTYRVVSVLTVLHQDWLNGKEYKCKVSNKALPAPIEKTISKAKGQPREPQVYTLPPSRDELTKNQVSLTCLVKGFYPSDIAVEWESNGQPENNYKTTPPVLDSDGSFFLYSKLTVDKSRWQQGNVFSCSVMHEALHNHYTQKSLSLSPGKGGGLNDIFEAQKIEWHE
- test-method-notes: ELISA after heat
Give measured % Retained 55° C. for each item. Keep answers brief.
One number for each entry, in %.

>  <binder>
CD3B2052 (scFv) scFv: QVQLVQSGAEVKKPGSSVKVSCKASGYTFTRSTMHWVKQAPGQGLEWMGYINPSSAYTNYAQKFQGRVTLTADKSTSTAYMELSSLRSEDTAVYYCASPQVHYDYNGFPYWGQGTLVTVSSGGSEGKSSGSGSESKSTGGSEIVLTQSPATLSASPGERVTLSCSASSSVSYMNWYQQKPGTSPRRWIYDSSKLASGVPARFSGSGSGRDYTLTISSLEPEDFAVYYCQQWSRNPPTFGGGTKVEIK

>  <measured-metric>
% Retained 55° C.

>  <obs-value>
112

$$$$
>  <binder>
CD3B2083 (scFv) scFv: QVQLVQSGAEVKKPGSSVKVSCKASGYTFTRSTMHWVRQAPGQGLEWMGYINPSSAYTNYAQKFQGRVTLTADKSTSTAYMELSSLRSEDTAVYYCASPQVHYDYNGFPYWGQGTLVTVSSGGSEGKSSGSGSESKSTGGSEIVLTQSPATLSASPGERVTLSCSASSSVSYMNWYQQKPGQSPRRLIYDSSKLASGVPARFSGSGSGRDYTLTISSLEPEDFAVYYCQQWSRNPPTFGGGTKVEIK

>  <measured-metric>
% Retained 55° C.

>  <obs-value>
104

$$$$
>  <binder>
CD3B2078 (scFv) scFv: QVQLVQSGAEVKKPGSSVKVSCKASGYTFTRSTMHWVRQAPGQGLEWIGYINPSSAYTNYAQKFQGRVTLTADKSTSTAYMELSSLRSEDTAVYYCASPQVHYDYNGFPYWGQGTLVTVSSGGSEGKSSGSGSESKSTGGSEIVLTQSPATLSASPGERVTLSCSASSSVSYMNWYQQKPGTSPRRLIYDSSKLASGVPARFSGSGSGRDYTLTISSLEPEDFAVYYCQQWSRNPPTFGGGTKVEIK

>  <measured-metric>
% Retained 55° C.

>  <obs-value>
107

$$$$

For each listed entry, give its % Retained 55° C..
1. CD3B2033 (scFv) scFv: QVQLVQSGAEVKKPGSSVKVSCKASGYTFTRSTMHWVKQAPGQGLEWMGYINPSSAYTNYNQKFQGRVTLTADKSTSTAYMELSSLRSEDTAVYYCASPQVHYDYNGFPYWGQGTLVTVSSGGSEGKSSGSGSESKSTGGSEIVLTQSPATLSASPGERVTLSCSASSSVSYMNWYQQKPGTAPRRLIYDSSKLASGVPARFSGSGSGRDYTLTISSLEPEDFAVYYCQQWSRNPPTFGGGTKVEIK
2. CD3B2051 (scFv) scFv: QVQLVQSGAEVKKPGSSVKVSCKASGYTFTRSTMHWVKQAPGQGLEWMGYINPSSAYTNYNQKFQGRVTLTADKSTSTAYMELSSLRSEDTAVYYCASPQVHYDYNGFPYWGQGTLVTVSSGGSEGKSSGSGSESKSTGGSEIVLTQSPATLSASPGERVTLSCSASSSVSYMNWYQQKPGQAPRRLIYDSSKLASGVPARFSGSGSGRDYTLTISSLEPEDFAVYYCQQWSRNPPTFGGGTKVEIK
3. CD3B2060 (scFv) scFv: QVQLVQSGAEVKKPGSSVKVSCKASGYTFTRSTMHWVKQAPGQGLEWIGYINPSSAYTNYAQKFQGRVTLTADKSTSTAYMELSSLRSEDTAVYYCASPQVHYDYNGFPYWGQGTLVTVSSGGSEGKSSGSGSESKSTGGSEIVLTQSPATLSASPGERVTLSCSASSSVSYMNWYQQKPGQAPRRLIYDSSKLASGVPARFSGSGSGRDYTLTISSLEPEDFAVYYCQQWSRNPPTFGGGTKVEIK
4. CD3B2029 (scFv) scFv: QVQLVQSGAEVKKPGSSVKVSCKASGYTFTRSTMHWVKQAPGQGLEWIGYINPSSAYTNYNQKFQGRVTLTADKSTSTAYMELSSLRSEDTAVYYCASPQVHYDYNGFPYWGQGTLVTVSSGGSEGKSSGSGSESKSTGGSEIVLTQSPATLSASPGERVTLSCSASSSVSYMNWYQQKPGQSPRRWIYDSSKLASGVPARFSGSGSGRDYTLTISSLEPEDFAVYYCQQWSRNPPTFGGGTKVEIK
5. CD3B2039 (scFv) scFv: QVQLVQSGAEVKKPGSSVKVSCKASGYTFTRSTMHWVKQAPGQGLEWMGYINPSSAYTNYAQKFQGRVTLTADKSTSTAYMELSSLRSEDTAVYYCASPQVHYDYNGFPYWGQGTLVTVSSGGSEGKSSGSGSESKSTGGSEIVLTQSPATLSASPGERVTLSCSASSSVSYMNWYQQKPGQSPRRWIYDSSKLASGVPARFSGSGSGRDYTLTISSLEPEDFAVYYCQQWSRNPPTFGGGTKVEIK
6. CD3B2057 (scFv) scFv: QVQLVQSGAEVKKPGSSVKVSCKASGYTFTRSTMHWVRQAPGQGLEWIGYINPSSAYTNYNQKFQGRVTLTADKSTSTAYMELSSLRSEDTAVYYCASPQVHYDYNGFPYWGQGTLVTVSSGGSEGKSSGSGSESKSTGGSEIVLTQSPATLSASPGERVTLSCSASSSVSYMNWYQQKPGQAPRRLIYDSSKLASGVPARFSGSGSGRDYTLTISSLEPEDFAVYYCQQWSRNPPTFGGGTKVEIK
7. CD3B2045 (scFv) scFv: QVQLVQSGAEVKKPGSSVKVSCKASGYTFTRSTMHWVRQAPGQGLEWIGYINPSSAYTNYNQKFQGRVTLTADKSTSTAYMELSSLRSEDTAVYYCASPQVHYDYNGFPYWGQGTLVTVSSGGSEGKSSGSGSESKSTGGSEIVLTQSPATLSASPGERVTLSCSASSSVSYMNWYQQKPGQAPRRWIYDSSKLASGVPARFSGSGSGRDYTLTISSLEPEDFAVYYCQQWSRNPPTFGGGTKVEIK

1. 100
2. 109
3. 107
4. 100
5. 111
6. 92
7. 111

Origin of measurements: patent US20250145711A1
